Tested on: MS2 coat protein
Test: apparent KD of MS2 coat protein; designed switch direction (-1 OFF switch, 1 ON switch): 1; higher = weaker reporter binding
Conditions: Eterna round: R95; input ligand: microRNA oligo, concentration not stated
Measured apparent KD of MS2 coat protein accompanies every entry in the list below.
Enter your answer as a number in nM; do not include the unit.

Here's what some known entries look like.
Query sequence	Tested target	Units label	Observed measurement
GGAGCCGGCACCGAGGAUAUUCAUAUUAAAACAUGAGGAUCACCCAUGUACCGCAGAAGCGGUUGGGAGAAGGCGGAUCGGCUCG [Xeonanis - 23] (puzzle: Same State 2)	MS2 coat protein	nM	271
CAGUGCUGUCGAGAGGAUAUGCGGUGAUGGACAUGAGGAUCACCCAUGUUAGCGACAGCAUCACGGCAGAAGGCUCUACCCACUG [Soteed Omei mod 45] (puzzle: Same State 2)	MS2 coat protein	nM	16.7
CGUCCAGCCUGAGCUGGACAAAAGCAUGUACAUGAGGAUCACCCAUGUUCAUGUACAAGCUUUUUGCUCGUCUUAAC [salish99_208a_r3_039] (puzzle: Sensor for hsa-mir-208a)	MS2 coat protein	nM	18.2
AAUAAUCUAUCUGAGGAUAUCAUGAAAUAAACAUGAGGAUCACCCAUGUGCAGGAAAACUGCAUAUGAGAAGGCAGAUAGAUUGA [salish99_ss2_r3_020] (puzzle: Same State 2)	MS2 coat protein	nM	551

Pending sequence:
Lookup: Give recorded apparent KD of MS2 coat protein. GUAUAACAUGAGGAUCACCCAUGUCAUCUAAGUCGAGGAUAUGGGCAAAUAUAAUAAGAACCAGAAGGCGAAUAUG [Mat - Same State 1 - Mod of UCT - D34] (puzzle: Same State 1)
Found: 111

====

System: K4 kissing-loop RNA reporter;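 also: bound reporter read as fluorescence of individual clusters on recovered sequencing chips by microscopy, with normalized cluster intensities fitted with a binding model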
Assay: apparent KD of K4 kissing-loop reporter; higher = weaker reporter binding
Conditions: Eterna round: R107; input ligand: none
Measured apparent KD of K4 kissing-loop reporter accompanies every entry in the list below.
Please answer in the form of a number followed by its unit of measurement.

Query sequence	apparent KD of K4 kissing-loop reporter
CCCUCACGAGUGAUGUUCGUAGGGUACAGUCAGGAUAUCAUGCGGUUGAGAAGGGACAGAGAGGGCGGCCACUGGUUGCUCUUCU [Tiatesqu]	235 nM
AGCAGGAGUGAUGUUCCUGUGGCAUAAGUUCGAGGACCGGUACGGCCGCCACUCGUAACAUUAAUCCGUCCUUGAUCAGAUAAGA [theeternabot_sameState_KL_Trp_A_12]	216 nM
UUCUGCAUCUCGGCCGCCACUCACUAGUGAUGUUAGUAAGGAGCGACUAGAAAAGUCCAGUUAAUGAGGACCGGGAGAAGCUCUU [Exclusion Tryptophan B GF 1]	312 nM
AAGCAGUCCCUUGUUGUCAUCGAAGAUGAACGAGGACCGGUACGGCCGCCACUCGGAGUGAUGUUCCGAUGGCUGCAAAAUAAAA [MatMod 21 - Jieux - Exclusion - Tryptophan A]	105 nM
GGCAUCCAUGGACAUAGUGAUGUUAUGUGCCGAGGACCGGUACGGCCGCCACUCGACCAUGGAUGCCGCAAUCGGAAACGAUUGC	1610 nM
AACUCUCAGACAUCUGAGUGAUGUUCAGGCCGAGGACCGGUACGGCCGCCACUCGGGUCUGAGAGAGGUUAUCAAAGAUAGCCAA [Omei KL Tryp A SS A v4]	468 nM
AGACCUCAGUGAUGUUGAGGUAACACUGAUACCAGCGACUUGAUUCGCCCUUGGCAGCAGUCCACCGAGGUAUCUGAUCAGGUCA [#25 K4 Theophylline A Exclusion]	137 nM
UAAUAAAUUCCAGCGAUAUCGCUCUUCGAAGGAGCGGGCGAAAGUCCAGGUAGGUCGCGGAGAGUGAUGUUCUUUGCGGCGCUGG [whbob_Ex_Arginine_A_2t134]	400 nM

Lookup: Give recorded apparent KD of K4 kissing-loop reporter. UUAGUCUAGAGAAGGAGCGCAGUGAUGUUGCGAAUAAUAAUAAUAAUAAAUAAAUAAUCGAUGCAGGUAGGUCGCUCUAGACAUU [AK1 Exc Arginine B]
Found: 288 nM

Lookup: Give recorded apparent KD of K4 kissing-loop reporter. UUUUAUAACCGAAGGAGCGCGUGGGCGCAGUGAUGUUGCGCCCGACAUCACUUCAACUUAACGCAGGUAGGUCGCGGUUUUAAUA [Arginine B (Excl) V2]
Found: 159 nM

Lookup: Give recorded apparent KD of K4 kissing-loop reporter. GGUUUCUGAAGUGAUGUUUCAGGAUGACACAAGGAUAUAUAUGGCGAUAGAAGGUGUGCGUCGCAUGACGAACGACGUCAGCUUC [theeternabot_exclusion_KL_FMN_A_37]
Found: 120 nM

Lookup: Give recorded apparent KD of K4 kissing-loop reporter. GCAAAACUCAGUGAUGUUGAGAUAUCGGAAGGAGCGCGUGAAAACGCAGGUAGGUCGCCGAUUCAAUGAGUUUCUCGUUGUUUGC [Arginine A K4 20]
Found: 318 nM

Lookup: Give recorded apparent KD of K4 kissing-loop reporter. GAAAGAAAGAAUGAUACCAGACACCCGAGUGAUGUUCGGAGCAGAGUGAUGUUCUAAUAAGUCCCUUGGCAGCAUAAAAGAAAAG [Same State Theophylline B GF 1]
Found: 322 nM

Lookup: Give recorded apparent KD of K4 kissing-loop reporter. AUUUUGGUUUAGAGUGAUGUUCCUUGUAUUCGAGGACCGGUACGGCCGCCACUCGGGUAGAAAAGAAAAGAAAUGUUUGAUUUUU [BDazzled - #9 SS Tryptophan A]
Found: 210 nM
